All values here come from ChEMBL document CHEMBL4706476.

assay: Half-life in rat at 50 mg/kg, po measured upto 24 hrs by LC-MS/MS analysis; type: ADME, organism-based; conditions: in vivo

Smiles notation: CCNc1nc(OCCOC)nc2c1CN(C(=O)c1cc(C(C)C)c(O)cc1O)CC2
half-life / h: 9.4
//
Smiles notation: COCCOc1ncc2c(n1)CCN(C(=O)c1cc(C(C)C)c(O)cc1O)C2
half-life / h: 7.4

---

test: Distribution coefficient, logD of compound at pH 7.4; format: physicochemical; conditions: octanol/water
Observed property: logD

Smiles notation: COCCOc1nc2c(c(OC)n1)CN(C(=O)c1cc(C(C)C)c(O)cc1O)CC2
Measured result: 2.56
//
Smiles notation: CCN(CC)CCOc1ncc2c(n1)CCN(C(=O)c1cc(C(C)C)c(O)cc1O)C2
Measured result: 1.17
//
Smiles notation: COCCOc1nc2c(c(OC(C)C)n1)CN(C(=O)c1cc(C(C)C)c(O)cc1O)CC2
Measured result: 3.84
//
Smiles notation: CCCOc1nc(OCCOC)nc2c1CN(C(=O)c1cc(C(C)C)c(O)cc1O)CC2
Measured result: 3.59
//
Smiles notation: COCCOc1nc2c(c(N(C)C)n1)CN(C(=O)c1cc(C(C)C)c(O)cc1O)CC2
Measured result: 2.35
//
Smiles notation: CCOc1nc(OCCOC)nc2c1CN(C(=O)c1cc(C(C)C)c(O)cc1O)CC2
Measured result: 2.74
//
Smiles notation: CCOc1ncc2c(n1)CCN(C(=O)c1cc(C(C)C)c(O)cc1O)C2
Measured result: 2.95
//
Smiles notation: CC(C)c1cc(C(=O)N2CCc3nc(OCCN4CCOCC4)ncc3C2)c(O)cc1O
Measured result: 1.48
//
Smiles notation: COCCOc1nc2c(c(NC3CC3)n1)CN(C(=O)c1cc(C(C)C)c(O)cc1O)CC2
Measured result: 2.45
//
Smiles notation: CCNc1nc(OCCOC)nc2c1CN(C(=O)c1cc(C(C)C)c(O)cc1O)CC2
Measured result: 2.32

---

test system: T47D; assay: Antiproliferative activity against human T47D assessed as reduction in cell viability incubated for 72 hrs by MTT assay; type: functional, cell-based
pIC50: −log10 of the molar value.
Observed property: pIC50

Smiles notation: CC(C)c1cc(C(=O)N2Cc3ccc(CN4CCN(C)CC4)cc3C2)c(O)cc1O
Measured result: 7.62

Smiles notation: CCCOc1nc(OCCOC)nc2c1CN(C(=O)c1cc(C(C)C)c(O)cc1O)CC2
Measured result: 6.75

Smiles notation: COCCOc1ncc2c(n1)CCN(C(=O)c1cc(C(C)C)c(O)cc1O)C2
Measured result: 6.74

Smiles notation: CCNc1nc(OCCOC)nc2c1CN(C(=O)c1cc(C(C)C)c(O)cc1O)CC2
Measured result: 6.71

---

half-life for assorted compounds
assay: Half-life in rat at 10 mg/kg, iv measured upto 24 hrs by LC-MS/MS analysis; type: ADME, organism-based; conditions: in vivo
Observed property: half-life

Smiles notation: COCCOc1ncc2c(n1)CCN(C(=O)c1cc(C(C)C)c(O)cc1O)C2
Measured result: 4.16 h
//
Smiles notation: CCNc1nc(OCCOC)nc2c1CN(C(=O)c1cc(C(C)C)c(O)cc1O)CC2
Measured result: 3.95 h

---

molecular target: UniProt:P11712; assay: Inhibition of CYP2C9 in human liver microsomes at 10 uM using diclofenac as substrate preincubated for 5 mins followed by NADPH addition and measured after 20 mins by LC-MS/MS analysis relative to control; type: ADME; settings: probe diclofenac, time 25 min
Sequence (P11712 whole entry): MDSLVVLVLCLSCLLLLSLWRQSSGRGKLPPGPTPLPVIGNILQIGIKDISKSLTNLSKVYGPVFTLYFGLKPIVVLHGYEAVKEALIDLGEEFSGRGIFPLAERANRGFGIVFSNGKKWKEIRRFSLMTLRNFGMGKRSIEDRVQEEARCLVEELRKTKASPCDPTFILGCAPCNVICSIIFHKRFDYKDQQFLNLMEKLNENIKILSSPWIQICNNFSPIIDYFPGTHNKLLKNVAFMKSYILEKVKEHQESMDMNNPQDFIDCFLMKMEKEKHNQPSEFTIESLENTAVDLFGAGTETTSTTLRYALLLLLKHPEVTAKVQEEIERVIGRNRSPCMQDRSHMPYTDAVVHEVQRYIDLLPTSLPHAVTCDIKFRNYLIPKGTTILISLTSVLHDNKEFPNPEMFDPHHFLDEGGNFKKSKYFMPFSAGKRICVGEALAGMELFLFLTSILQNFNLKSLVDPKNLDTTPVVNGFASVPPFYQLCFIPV

Smiles notation: CCNc1nc(OCCOC)nc2c1CN(C(=O)c1cc(C(C)C)c(O)cc1O)CC2
inhibition at 20 min, 10 µM: 36%
